- targetSystem: Beta-lactamase (Pseudomonas aeruginosa, UniProt Q79MP6)
- Sequence (Q79MP6 whole entry): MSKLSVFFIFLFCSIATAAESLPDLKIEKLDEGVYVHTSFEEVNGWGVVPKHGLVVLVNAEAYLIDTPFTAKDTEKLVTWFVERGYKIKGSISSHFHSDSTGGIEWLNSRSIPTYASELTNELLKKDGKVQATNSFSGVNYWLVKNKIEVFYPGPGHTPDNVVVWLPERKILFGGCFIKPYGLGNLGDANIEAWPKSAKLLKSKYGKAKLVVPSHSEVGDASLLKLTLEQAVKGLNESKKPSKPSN
- assayComment: […] counterscreen for selective VIM-2 inhibitors: dose response biochemical high throughput screening assay to identify inhibitors of IMP-1 metallo-beta-lactamase.
The source made the active and inactive calls. How the calls were made is not given here.
measuredAttribute: IC50

>>> result("COc1ccc2[nH]c(C(=O)O)c(CCN3C(=O)c4ccc(C(=O)O)cc4C3=O)c2c1")
"> 59.6 µM (inactive)"
>>> result("CCc1nnc(S)n1/N=C/C(C)=C\\c1ccccc1")
"> 59.6 µM (inactive)"
>>> result("CC(C)(C)c1ccc(-c2n[nH]c(=S)n2CCCN2CCOCC2)cc1")
"> 59.6 µM (inactive)"
>>> result("CC(C)(C)CC(=O)Nc1nnc(SCC(=O)NCc2cccs2)s1")
"> 59.6 µM (inactive)"
